Source listed as ChEMBL document CHEMBL4689842.

Tested on: U2OS
procedureText: Multiplex assay against U2OS
Type: toxicity, cell-based
statedConditions: human, 48 h, 1 µM, compound concentration 1 uM, replicate 2
readoutType: Population Apoptotic (%)

INSERT INTO measurements (compound, targetdesc, reported) VALUES
  ('Cc1ccc(S(=O)(=O)NC2c3ccccc3Oc3ccccc32)cc1', 'U2OS', 25),
  ('CC(C)c1cc(Nc2nc(N3CCC[C@H](N)C3)ncc2C(N)=O)cc(C(C)C)n1', 'U2OS', 52),
  ('CN(c1cc(C(F)(F)F)nc(OCCC(=O)O)n1)c1cccc2c1CCC2', 'U2OS', 40),
  ('C[C@@H](Oc1cc(-n2cnc3ccc(CN4CCN(C)CC4)cc32)sc1C(N)=O)c1ccccc1C(F)(F)F [GSK-461364]', 'U2OS', 47),
  ('CC(/C=C1\SC(=S)N(CCCC(=O)Nc2ccc(C(=O)O)c(O)c2)C1=O)=C\c1ccccc1', 'U2OS', 50),
  ('C=CC(=O)Nc1cc(-n2c(=O)ccc3cnc4ccc(-c5ccc(NS(C)(=O)=O)cc5)cc4c32)ccc1C', 'U2OS', 9),
  ('N#Cc1cccc(C(=O)Nc2cc(-c3ccccc3)nn2-c2ccccc2)c1', 'U2OS', 20),
  ('Oc1cccc(-c2nc(N3CCOCC3)c3oc4ncccc4c3n2)c1 [PI-103]', 'U2OS', 63),
  ('CC(C)[C@H](CO)Nc1nc(Nc2cccc(Cl)c2)c2ncn(C(C)C)c2n1 [PURVALANOLA]', 'U2OS', 60),
  ('Cc1c(P(=S)(c2ccccc2)c2ccccc2)n2ccccc2[n+]1C/C=C/c1ccccc1.[Br-]', 'U2OS', 60),
  ('CCCc1cc(C)[nH]c(=O)c1CNC(=O)c1cc(-c2ccc(N3CCN(C(C)C)CC3)nc2)cc2c1cnn2C(C)C', 'U2OS', 46),
  ('Cl.NC[C@@H]1O[C@H](C23CC4CC(CC(C4)C2)C3)Cc2c1ccc(O)c2O', 'U2OS', 57),
  ('N#CCNC(=O)c1ccc(-c2ccnc(Nc3ccc(N4CCOCC4)cc3)n2)cc1 [MOMELOTINIB]', 'U2OS', 100),
  ('CCCCN(CC)c1nc(C)nc2c1c(C)cn2-c1c(C)cc(C)cc1C.Cl', 'U2OS', 28),
  ('CCCCCNC(=N)N/N=C/c1c[nH]c2ccc(OC)cc12.O=C(O)/C=C\C(=O)O [TEGASEROD MALEATE]', 'U2OS', 35),
  ('CC(Cc1ccc(O)c(O)c1)C(C)Cc1ccc(O)c(O)c1 (configuration not stated) [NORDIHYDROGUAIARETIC ACID]', 'U2OS', 20),
  ('CN1C(=O)[C@@H](NC(=O)c2cc3ccccc3[nH]2)N=C(c2ccccc2)c2ccccc21 [DEVAZEPIDE]', 'U2OS', 50);

----------
Test system: U2OS
procedureText: Multiplex assay against U2OS
Format: toxicity, cell-based
statedConditions: human, 12 h, 1 µM, compound concentration 1 uM, replicate 1
readoutType: Population Hoechst High Intensity Objects (%)

INSERT INTO measurements (molecule, targetdesc, unit, reported) VALUES
  ('Cc1ccc(S(=O)(=O)NC2c3ccccc3Oc3ccccc32)cc1', 'U2OS', '%', 5),
  ('N#CCNC(=O)c1ccc(-c2ccnc(Nc3ccc(N4CCOCC4)cc3)n2)cc1 [MOMELOTINIB]', 'U2OS', '%', 5),
  ('CCCc1cc(C)[nH]c(=O)c1CNC(=O)c1cc(-c2ccc(N3CCN(C(C)C)CC3)nc2)cc2c1cnn2C(C)C', 'U2OS', '%', 15),
  ('CNC(=O)Nc1ccc2c(c1)CC[C@@]21OC(=O)N(CC(=O)N(Cc2ccc(F)cc2)[C@@H](C)C(F)(F)F)C1=O [A-485]', 'U2OS', '%', 4),
  ('NC(=O)c1ccc2nc(-c3ccc(C4(N)CCC4)cc3)c(-c3ccccc3)n2n1 [BAY-1125976]', 'U2OS', '%', 6),
  ('CCCCCNC(=N)N/N=C/c1c[nH]c2ccc(OC)cc12.O=C(O)/C=C\C(=O)O [TEGASEROD MALEATE]', 'U2OS', '%', 8),
  ('CC(/C=C1\SC(=S)N(CCCC(=O)Nc2ccc(C(=O)O)c(O)c2)C1=O)=C\c1ccccc1', 'U2OS', '%', 3),
  ('CCCCN(CC)c1nc(C)nc2c1c(C)cn2-c1c(C)cc(C)cc1C.Cl', 'U2OS', '%', 8),
  ('C[C@@H](Oc1cc(-n2cnc3ccc(CN4CCN(C)CC4)cc32)sc1C(N)=O)c1ccccc1C(F)(F)F [GSK-461364]', 'U2OS', '%', 7);
